For each entry below, report its YI (Yellowness Index) value.
Assay: UV/Vis absorbance at 400 nm and Yellowness Index of the ring-open isomer
Format: physicochemical
Write no unit; give the number alone.

Answer with the recorded YI (Yellowness Index) of COc1cc2oc(-c3ccc(C(C)(C)C)cc3)c(C3=C(c4cc(-c5ccc(C(C)(C)C)s5)sc4-c4ccc(C(C)(C)C)s4)C(F)(F)C(F)(F)C3(F)F)c2cc1OC only.
5.61

Answer with the recorded YI (Yellowness Index) of CCOC(=O)CCCOc1cc2oc(-c3ccc(C(C)(C)C)cc3)c(C3=C(c4cc(-c5cc(C(C)(C)C)cs5)sc4-c4cc(C(C)(C)C)cs4)C(F)(F)C(F)(F)C3(F)F)c2cc1OCCCC(=O)OCC only.
4.05

Answer with the recorded YI (Yellowness Index) of CCOC(=O)CCCOc1cc2oc(-c3ccc(C(C)(C)C)cc3)c(C3=C(c4cc(-c5sc(C(C)(C)C)cc5C)sc4-c4sc(C(C)(C)C)cc4C)C(F)(F)C(F)(F)C3(F)F)c2cc1OCCCC(=O)OCC only.
4.13

Answer with the recorded YI (Yellowness Index) of COc1cc2oc(-c3ccc(C(C)(C)C)cc3)c(C3=C(c4cc(-c5cc(C(C)(C)C)cs5)sc4-c4cc(C(C)(C)C)cs4)C(F)(F)C(F)(F)C3(F)F)c2cc1OC only.
4.89

Answer with the recorded YI (Yellowness Index) of CCOC(=O)CCCOc1cc2oc(-c3ccc(C(C)(C)C)cc3)c(C3=C(c4cc(-c5cc6c(s5)C(C)(C)CCC6(C)C)sc4-c4cc5c(s4)C(C)(C)CCC5(C)C)C(F)(F)C(F)(F)C3(F)F)c2cc1OCCCC(=O)OCC only.
8.15

Answer with the recorded YI (Yellowness Index) of CC(C)(C)c1ccc(-c2oc3cc(OCCN4CCOC4=O)c(OCCN4CCOC4=O)cc3c2C2=C(c3cc(-c4cc5c(s4)C(C)(C)CCC5(C)C)sc3-c3cc4c(s3)C(C)(C)CCC4(C)C)C(F)(F)C(F)(F)C2(F)F)cc1 only.
6.48

Answer with the recorded YI (Yellowness Index) of COc1cc2oc(-c3ccc(C(C)(C)C)cc3)c(C3=C(c4cc(-c5cc6c(s5)C(C)(C)CCC6(C)C)sc4-c4cc5c(s4)C(C)(C)CCC5(C)C)C(F)(F)C(F)(F)C3(F)F)c2cc1OC only.
8.12

Answer with the recorded YI (Yellowness Index) of CC(=O)Oc1cc2oc(-c3ccc(C(C)(C)C)cc3)c(C3=C(c4cc(-c5ccc(C(C)(C)C)s5)sc4-c4ccc(C(C)(C)C)s4)C(F)(F)C(F)(F)C3(F)F)c2cc1OC(C)=O only.
5.47

Answer with the recorded YI (Yellowness Index) of COCCCOc1cc2oc(-c3ccc(C(C)(C)C)cc3)c(C3=C(c4cc(-c5cc6c(s5)C(C)(C)CCC6(C)C)sc4-c4cc5c(s4)C(C)(C)CCC5(C)C)C(F)(F)C(F)(F)C3(F)F)c2cc1OCCCOC only.
6.3

Hey, just so you know, these numbers are from patent US20220220100A1.
